B1: Hairpin Ribozyme (parent)
chain: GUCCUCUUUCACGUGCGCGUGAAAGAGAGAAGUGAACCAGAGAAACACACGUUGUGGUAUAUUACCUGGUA

- Variants of: B1
- experimentalDetails: self-cleavage, relative activity (ratio to wild type); higher = more cleavage; co-transcriptional
assayEndpoint: self-cleavage
No unit in the answer, please; the number alone is enough.

mutation: U5C A71G
assayEndpoint: self-cleavage
quantitativeReadout: 0.389

Ask | Which self-cleavage value is on record for U20G C46U ?
Reply | 0.0821

Ask | State the recorded self-cleavage for this entry: C3G U62A
Reply | 0.107

Ask | Suppose we examine the variant U53G U55A ; what self-cleavage value has been reported?
Reply | 0.269

Ask | Name the recorded self-cleavage for C4A C10G .
Reply | 0.164

Ask | Any idea what self-cleavage was measured for U2G U62A ?
Reply | 0.0977

Ask | What does the record list as self-cleavage for C12U G25A ?
Reply | 0.482

Ask | For the variant shown here, A11G A22C , give the reported self-cleavage.
Reply | 0.779

Ask | Recorded self-cleavage for A45U C46G , please?
Reply | 0.241
